B1: HDV Ribozyme (parent)
chain: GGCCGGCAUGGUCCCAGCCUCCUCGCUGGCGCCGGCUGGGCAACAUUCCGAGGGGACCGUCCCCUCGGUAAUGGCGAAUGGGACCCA

Variants of: B1
assay info: self-cleavage, relative activity (ratio to wild type); higher = more cleavage; co-transcriptional
Grouping rule (self-cleavage): 0: < 0.1; 1: ≥ 0.1 and < 0.5; 2: ≥ 0.5

Request: Band for GGCCGGCAUGGUCCCAGCCUCGUCGCUGGCGCCGGCUGGGCAACAUUCCGAGGGGACCGUCCCCUCGGUAAUGGCGAAUGAGACCCA [C22G G81A] ?
Result: 0

Request: Band for GGCCGGCAUGGUCCCAGCCUCCUCGCUGGGGCCGGCUGGGCAACAUUCCGAGGGGACCGUCCACUCGGUAAUGGCGAAUGGGACCCA [C30G C63A] ?
Result: 1

Request: Band for GGCCGGCAUGGUCCCAGCCUCCUCGCUGGCGCCGGCUGGGCAACAUUCCGAGGGGACCGUCCCCUCGGUAAUGGCGAAUGGGUCUCA [A83U C85U] ?
Result: 1

Request: Band for GGCCGGCAUGGUCCCAGCCUCCUCGCCGGCGCCGGCUGGGCAACAUUCCGAGGGGACCGUCCCCUCGGUAAUGGCGAAUGUGACCCA [U27C G81U] ?
Result: 1

Request: Band for GGACGGCAUGGUCCCAGCCUCAUCGCUGGCGCCGGCUGGGCAACAUUCCGAGGGGACCGUCCCCUCGGUAAUGGCGAAUGGGACCCA [C3A C22A] ?
Result: 0

Request: Band for GGCCGGCAUGGUCCCAGCCUCCUCGCUGGCGCCGGCUGGUCAACAUUCCGAGGGGACCGUCCCCUCGGUAAUUGCGAAUGGGACCCA [G40U G73U] ?
Result: 1

Request: Band for GGCCGGCAUGGUCCCGGCCUCCUCGCUGGAGCCGGCUGGGCAACAUUCCGAGGGGACCGUCCCCUCGGUAAUGGCGAAUGGGACCCA [A16G C30A] ?
Result: 2

Request: Band for GGCCGGCAUGGUACCAGCCGCCUCGCUGGCGCCGGCUGGGCAACAUUCCGAGGGGACCGUCCCCUCGGUAAUGGCGAAUGGGACCCA [C13A U20G] ?
Result: 0

Request: Band for GGCCGUCAUGGUCCCAGCCUCCUCGCUGGCGCCGGCUGGGCAACAUUCCGAGGGGACCGUCCCCUCGGUAAUGGCGAAUGGGACCAA [G6U C86A] ?
Result: 2

Request: Band for GGCCGGCAUGGUUCCAGCCUCCUCGCUGGCGUCGGCUGGGCAACAUUCCGAGGGGACCGUCCCCUCGGUAAUGGCGAAUGGGACCCA [C13U C32U] ?
Result: 2

Request: Band for GGCGGGCAUGGUCCCAGCCUCCUCGCUGGCGCCGGCUGGGCAACAUUCCGAGGGGACCGUCCCCUCGGUAAUGGGGAAUGGGACCCA [C4G C75G] ?
Result: 1

Request: Band for GGCCGGCAUGGUCCCAGCCUCCUCGAUGGCGCCGGCUGGGCAACAUUCCGAGCGGACCGUCCCCUCGGUAAUGGCGAAUGGGACCCA [C26A G53C] ?
Result: 2

Request: Band for GGCCGGCAAGGUCCCAGCCUCCUCGCUGGCGCCGGCUGGGCAACAUUCCGAGGGGACCGUCCCCUCGGUAAUGGAGAAUGGGACCCA [U9A C75A] ?
Result: 0

Request: Band for GGCCGGCAUGGUCCCAGCCUCCUCGCUGGCGACGGCUGGGCAACAUUCCGAUGGGACCGUCCCCUCGGUAAUGGCGAAUGGGACCCA [C32A G52U] ?
Result: 1

Request: Band for GGCCGGCAUGGUCCCAGCCUCCUCGGUGGCGCCGGCUGGGCAACAUUCCGAUGGGACCGUCCCCUCGGUAAUGGCGAAUGGGACCCA [C26G G52U] ?
Result: 2

Request: Band for GGCCGGCAUGGGCCCAGCCUCCUCGCUCGCGCCGGCUGGGCAACAUUCCGAGGGGACCGUCCCCUCGGUAAUGGCGAAUGGGACCCA [U12G G28C] ?
Result: 0

Request: Band for GGCCGGCAUGGUCCCAGCCUCCUCGCUGGCGCCGGUUGGGCAACAUUCCGAGGGGACCGUCCCCUCGGUAAUGGCGAAUGGGACCGA [C36U C86G] ?
Result: 2

Request: Band for GGCCGGCAUGGUCCCAGCCUCCUCGCUGGCGCCGGCUGGGCACCAUUCGGAGGGGACCGUCCCCUCGGUAAUGGCGAAUGGGACCCA [A43C C49G] ?
Result: 1

Request: Band for GGCCGGCAUGGUCCCAGCCUCCUCGCUGGCGCAGGCUGGGCAGCAUUCCGAGGGGACCGUCCCCUCGGUAAUGGCGAAUGGGACCCA [C33A A43G] ?
Result: 0

Request: Band for GGCCGGCAUGGUCCCAGCCUCCUCGCUGGCGCCAGCUGGGCAACAUGCCGAGGGGACCGUCCCCUCGGUAAUGGCGAAUGGGACCCA [G34A U47G] ?
Result: 0

Request: Band for GGCCGGCAUGGUCUCAGCCUCCUCGCUGGAGCCGGCUGGGCAACAUUCCGAGGGGACCGUCCCCUCGGUAAUGGCGAAUGGGACCCA [C14U C30A] ?
Result: 2

Request: Band for GGCCGCCAUGGUCCGAGCCUCCUCGCUGGCGCCGGCUGGGCAACAUUCCGAGGGGACCGUCCCCUCGGUAAUGGCGAAUGGGACCCA [G6C C15G] ?
Result: 0

Request: Band for GGCCGGCAUGGUCCCAGCCUCCUCGCUGGCGCCGGCUGGGCAACUUUCCGAGCGGACCGUCCCCUCGGUAAUGGCGAAUGGGACCCA [A45U G53C] ?
Result: 2

Request: Band for GGCCGGCAUGGUCCCAGCCUCCUCGCUCGCGCCGGCUGGGCAACAUUCCGAGGGGACCGUCCCCUCGGUAAUGGCGAAUGGCACCCA [G28C G82C] ?
Result: 0

Request: Band for GGCCGGCAUGAUCCCAGCCUCCUCGCUGGCGCCGGCUGGGCAACAUUCCGAGGGGACCGUCCCCUCGGUAAUGGCGAAUGGGUCCCA [G11A A83U] ?
Result: 1

Request: Band for GACCGGCAUGGUCCCAGCCUCCUCGCUGGCGCCGGCUGGGCAACAUUCCGAGGGGACCGUCCCCUCGGUAAUGGCGAAUGGGACGCA [G2A C85G] ?
Result: 1

Request: Band for GGCCGGCAUGGUCCCAGCCUCCUCGCUGGCGGCGGCUGCGCAACAUUCCGAGGGGACCGUCCCCUCGGUAAUGGCGAAUGGGACCCA [C32G G39C] ?
Result: 1

Request: Band for GGCCGGCAUGGUCCCAGCCUCCUCGCUGGCGCGGGCUGGGCAACAUUCCGAGGGGACCCUCCCCUCGGUAAUGGCGAAUGGGACCCA [C33G G59C] ?
Result: 1

Request: Band for GGCCGGCAUGGUCCCAGCCUCCUCGCUGGCGCCGGCUGGGCAACAUUCCGAGGUGACCGUCCCCUCGGUAAUGGCGAAUGGGAACCA [G54U C84A] ?
Result: 2
